# experimental_system: Caspase-6 (Homo sapiens)
# protocol_description: inhibition of CASP6 peptide cleavage – biochemical, VEID-R110 fluorescence, cherry-pick, dose response (AID 720632)
Active and inactive are the calls of the source.
quantity: AC50

Worked set:
Ask: What AC50 value was documented for this molecule, COCCN(C(=O)c1cc2c(s1)CCC2)c1c(N)n(CC(C)C)c(=O)[nH]c1=O ?
Reply: 22.4 µM (active)

Ask: Moving on to O=C(N/N=C/c1cc(Br)c(O)c(Br)c1O)c1cccnc1
Reply: 22.9 µM (active)

Ask: Moving on to COc1ccccc1N=Nc1ccc(O)c2ncccc12
Reply: 34.5 µM (active)

// below: AC50 requested for another molecule
Ask: What AC50 value was documented for this molecule, COc1cc(/C=N/Nc2ccc(C(=O)O)cc2)ccc1O ?
Reply: 11.1 µM (active)

---

# experimental_system: Short transient receptor potential channel 4 (Mus musculus)
# Sequence (Q9QUQ5 whole entry): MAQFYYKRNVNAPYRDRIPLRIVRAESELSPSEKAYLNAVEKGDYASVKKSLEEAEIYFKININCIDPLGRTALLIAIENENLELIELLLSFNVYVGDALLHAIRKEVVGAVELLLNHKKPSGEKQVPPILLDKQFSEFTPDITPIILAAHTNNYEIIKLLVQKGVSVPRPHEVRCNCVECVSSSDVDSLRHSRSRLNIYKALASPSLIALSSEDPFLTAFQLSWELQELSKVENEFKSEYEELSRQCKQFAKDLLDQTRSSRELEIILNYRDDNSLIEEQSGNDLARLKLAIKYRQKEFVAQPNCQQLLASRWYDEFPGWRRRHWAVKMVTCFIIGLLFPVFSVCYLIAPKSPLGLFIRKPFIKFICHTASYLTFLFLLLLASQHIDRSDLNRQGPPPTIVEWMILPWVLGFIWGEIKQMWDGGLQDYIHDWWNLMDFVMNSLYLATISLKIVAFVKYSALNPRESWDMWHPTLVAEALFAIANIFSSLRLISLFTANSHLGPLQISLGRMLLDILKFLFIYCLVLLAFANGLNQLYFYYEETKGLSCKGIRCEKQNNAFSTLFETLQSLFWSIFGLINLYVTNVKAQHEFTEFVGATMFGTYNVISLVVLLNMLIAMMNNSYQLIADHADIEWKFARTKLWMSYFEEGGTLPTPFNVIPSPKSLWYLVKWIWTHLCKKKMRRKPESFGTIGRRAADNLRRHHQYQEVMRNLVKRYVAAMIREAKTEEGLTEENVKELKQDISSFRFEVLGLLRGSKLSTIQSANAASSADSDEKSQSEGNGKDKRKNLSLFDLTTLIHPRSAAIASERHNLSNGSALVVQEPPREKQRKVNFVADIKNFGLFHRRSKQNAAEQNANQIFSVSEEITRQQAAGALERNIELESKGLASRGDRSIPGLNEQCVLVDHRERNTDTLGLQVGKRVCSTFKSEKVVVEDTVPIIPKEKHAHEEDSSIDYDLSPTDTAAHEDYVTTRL
# protocol_description: calcium entry via TRPC4 opening agents – cell-based, HEK293 TRPC4/mu-opioid, Fluo-4 calcium, dose response (AID 434937)
# Format: functional
Calls of active or inactive are those of the source.
Please go through the items and note down their EC50.

Worked set:
Ask: What EC50 value was documented for this compound, COc1cc(/C=C2/SC(=S)N(Cc3ccccc3)C2=O)cc(Cl)c1O ?
Reply: 5.31 µM (active)

Ask: Moving on to O=C(NC1CCN(Cc2ccccc2)CC1)C12CC3CC(CC(C3)C1)C2
Reply: 1.5 µM (active)

Ask: Moving on to O=C(O)C1C2C=CC(C2)C1C(=O)N1CCN(C/C=C/c2ccccc2)CC1 (stereo unspecified)
Reply: 5.96 µM (active)

Ask: Moving on to CC1CC(C)CN(CCCNC(=O)COc2cc(=O)n(C)c3ccccc23)C1 (stereo unspecified)
Reply: 0.749 µM (active)

Ask: Moving on to OC(CNC1CCCc2ccccc21)COc1ccc2ccccc2c1 (stereo unspecified)
Reply: 5.96 µM (active)

Next:
Ask: What EC50 value was documented for this compound, COc1ccc(-n2nc(C(=O)NCC(=O)NCCCN3CC(C)CC(C)C3)c3ccccc3c2=O)cc1Cl (stereo unspecified) ?
Reply: 1.5 µM (active)

---

# Test system: H4
# protocol_description: Luminescence Cell-Based Dose Response HTS to Identify Activators of 5'UTR Stem-Loop Driven Prion Protein mRNA Translation in H4 Neuroglioblastoma Cells. [Related pubchem assays: 1829 (Project Summary), 1814 (Primary HTS)]
# Format: functional
# measurement_parameters: Homo sapiens
Active and inactive are the calls of the source.
quantity: EC50

Ask: What EC50 value was documented for this molecule, COc1ccc(CCC(=O)NCCS(=O)(=O)N2CCN(c3ccccc3OC)CC2)cc1 ?
Reply: > 120 µM (not active)

Please look at the items below and tell me EC50 for each one, in order.
1. Cn1c(C(=O)NCCc2c[nH]c3ccccc23)cc2sccc21
2. CC1CCCN(C(=O)CSc2cnc3ccccc3n2)C1 (configuration not stated)
3. Cc1ccc(NC(=O)c2cc(=O)c3ccccc3o2)cc1
4. CCc1cc(C=C(Cl)Cl)oc(=O)c1C

Reply:
14.7 µM (active)
11 µM (active)
21.6 µM (active)
> 120 µM (not active)

Please look at the items below and tell me EC50 for each one, in order.
1. O=C(NCCCN1CCCCC1)c1ccc2c(=O)n(CCc3ccccc3)c(=O)[nH]c2c1
2. Cc1nn(C)c(=O)n1-c1ccc(OCc2ccccc2)cc1

Reply:
93.9 µM (active)
12.9 µM (active)

The measurements presented in this section are drawn from ChEMBL document CHEMBL1201862.
